Property: IC50; scope: individual compounds
Target: Lp-PLA2 in human plasma (Homo sapiens, UniProt Q13093)
Construct: This assay may detect the activity of Lp-PLA2 in human plasma; from tissue; host or cells: pooled human plasma
Sequence (Q13093 22-441): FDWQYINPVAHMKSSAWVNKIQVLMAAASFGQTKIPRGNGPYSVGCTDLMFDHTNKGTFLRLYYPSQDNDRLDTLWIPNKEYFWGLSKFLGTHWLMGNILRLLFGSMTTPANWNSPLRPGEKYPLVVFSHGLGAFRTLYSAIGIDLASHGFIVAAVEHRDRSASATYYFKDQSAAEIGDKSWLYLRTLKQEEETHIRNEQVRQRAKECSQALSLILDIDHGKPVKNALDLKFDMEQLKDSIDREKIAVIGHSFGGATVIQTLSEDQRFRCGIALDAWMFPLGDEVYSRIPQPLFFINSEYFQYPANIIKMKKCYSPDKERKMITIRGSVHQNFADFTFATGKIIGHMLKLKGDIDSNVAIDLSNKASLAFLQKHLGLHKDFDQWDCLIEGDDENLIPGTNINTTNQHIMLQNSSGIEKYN
Test: Lp-PLA2 human plasma assay (Thio-PAF assay)
Assay type: biochemical
Conditions: pooled human plasma, 2-thio-PAF substrate; read-out: pIC50 in the thio-PAF assay (converted)
Where a name gives a salt, the structure may show the parent alone.

CN1CCn2c1cc(OCc1ccc(Oc3cnc(C(F)(F)F)nc3)c(C#N)c1)nc2=O | ≤ 1000 nM
CN1CCn2c1cc(OCc1ccc(Oc3ccc(C(F)(F)F)cn3)c(C#N)c1)nc2=O [Example E35, trifluoroacetic acid salt] | ≤ 1000 nM
CN1CCn2c1cc(OCc1ccc(Oc3ccnc(Cl)c3)c(C#N)c1)nc2=O | ≤ 1000 nM
CN1CCn2c1cc(OCc1ccc(Oc3cccc(F)c3)c(C#N)c1)nc2=O | ≤ 1000 nM
CN1CCn2c1cc(OCc1ccc(Oc3ccc(F)c(Cl)c3)c(C#N)c1)nc2=O [Example E39, trifluoroacetic acid salt] | ≤ 1000 nM
CN1CCn2c1cc(OCc1ccc(Oc3cccc(C(F)(F)F)c3)c(C#N)c1)nc2=O [Example E1] | ≤ 100 nM
CN1CCn2c1cc(OCc1ccc(Oc3ccnc(C#N)c3)c(C#N)c1)nc2=O [Example 130, trifluoroacetic acid salt] | ≤ 100 nM
CN1CCn2c1cc(OCc1cc(F)c(F)c(F)c1)nc2=O | ≤ 1000 nM
CN1CCn2c1cc(OCc1ccc(Oc3ccc(C(F)(F)F)nc3)c(C#N)c1)nc2=O | ≤ 100 nM
N#Cc1cc(COc2cc3n(c(=O)n2)CCN3)ccc1Oc1ccc(C(F)(F)F)nc1 [Example 93, trifluoroacetic acid salt] | ≤ 100 nM

In one line, give reported IC50 of the entry CN1CCn2c1cc(OCc1ccc(Oc3cncc(C(F)(F)F)c3)c(F)c1)nc2=O .
≤ 100 nM

In one line, give reported IC50 of the entry CN1CCn2c1cc(OCc1ccc(Oc3cncc(Cl)c3)c(C#N)c1)nc2=O .
≤ 100 nM

In one line, give reported IC50 of the entry N#Cc1ccc(Oc2ccc(COc3cc4n(c(=O)n3)CCN4)cc2F)cc1C(F)(F)F .
≤ 100 nM

In one line, give reported IC50 of the entry CN1CCn2c1cc(OCc1ccc(Oc3ccc(F)c(F)c3)c(F)c1)nc2=O .
≤ 100 nM

In one line, give reported IC50 of the entry N#Cc1ccc(Oc2ccc(COc3cc4n(c(=O)n3)CCN4)cc2C#N)cc1F .
≤ 100 nM

In one line, give reported IC50 of the entry N#Cc1cc(COc2cc3n(c(=O)n2)CCN3)ccc1Oc1cc(F)cc(C(F)(F)F)c1 .
≤ 100 nM

###

Biological target: Lp-PLA2 in human plasma (Homo sapiens, UniProt Q13093)
Construct: This assay may detect the activity of Lp-PLA2 in human plasma; from tissue; host or cells: pooled human plasma
Sequence (Q13093 22-441): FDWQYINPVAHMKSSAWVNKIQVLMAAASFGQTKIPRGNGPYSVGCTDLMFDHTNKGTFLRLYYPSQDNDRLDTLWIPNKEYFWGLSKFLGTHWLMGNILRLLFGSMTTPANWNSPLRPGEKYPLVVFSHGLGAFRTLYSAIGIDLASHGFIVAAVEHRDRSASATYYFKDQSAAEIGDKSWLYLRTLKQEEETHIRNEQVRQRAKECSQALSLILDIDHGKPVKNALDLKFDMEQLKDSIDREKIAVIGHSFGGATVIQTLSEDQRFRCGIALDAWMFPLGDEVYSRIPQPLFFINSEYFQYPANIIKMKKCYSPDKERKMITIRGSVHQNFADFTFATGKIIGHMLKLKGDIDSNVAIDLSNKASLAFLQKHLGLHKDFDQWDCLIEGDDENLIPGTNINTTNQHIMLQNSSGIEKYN
Experiment: Lp-PLA2 human plasma assay (Thio-PAF assay)
Assay type: biochemical
Settings: pooled human plasma, 2-thio-PAF substrate; read-out: pIC50 in the thio-PAF assay (converted)
Where a name gives a salt, the structure may show the parent alone.
endpoint_label: IC50

CC(C)N1CCn2c1cc(OCc1ccc(Oc3ccc(F)c(F)c3)c(C#N)c1)nc2=O | ≤ 1 µM
CN1CCn2c1cc(OCc1ccc(Oc3ccc(Cl)c(F)c3)c(C#N)c1)nc2=O [Example E37, trifluoroacetic acid salt] | ≤ 1 µM
CN1CCn2c1cc(OCc1ccc(Oc3ccc(F)c(C(F)(F)F)c3)cc1)nc2=O | ≤ 1 µM
CN1CCn2c1cc(OCc1ccc(Oc3cncc(C#N)c3)c(F)c1)nc2=O | ≤ 1 µM
CN1CCn2c1cc(OCc1cc(F)c(Oc3cncc(C(F)(F)F)c3)c(F)c1)nc2=O | ≤ 0.1 µM
CN1CCn2c1cc(OCc1cc(F)c(Oc3cc(F)cc(F)c3)c(F)c1)nc2=O | ≤ 1 µM

Attention now turns to another entry.
In one line, give reported IC50 of the entry CN1CCn2c1cc(OCc1ccc(Oc3ccnc(C(F)(F)F)c3)c(F)c1)nc2=O .
≤ 0.1 µM

###

Molecular target: Lp-PLA2 in human plasma (Homo sapiens, UniProt Q13093)
Construct: This assay may detect the activity of Lp-PLA2 in human plasma; from tissue; host or cells: pooled human plasma
Sequence (Q13093 22-441): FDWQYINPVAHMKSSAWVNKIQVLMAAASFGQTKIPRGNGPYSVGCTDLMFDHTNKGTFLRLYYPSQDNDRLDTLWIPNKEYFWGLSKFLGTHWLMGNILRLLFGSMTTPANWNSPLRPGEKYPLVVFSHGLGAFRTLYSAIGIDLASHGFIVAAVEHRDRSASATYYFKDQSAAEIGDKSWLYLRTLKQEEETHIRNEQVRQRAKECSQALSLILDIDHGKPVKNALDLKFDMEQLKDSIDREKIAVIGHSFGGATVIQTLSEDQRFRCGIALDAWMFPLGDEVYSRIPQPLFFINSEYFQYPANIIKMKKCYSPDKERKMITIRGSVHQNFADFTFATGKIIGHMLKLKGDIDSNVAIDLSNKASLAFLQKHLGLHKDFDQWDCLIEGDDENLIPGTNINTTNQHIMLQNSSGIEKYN
Test: Lp-PLA2 human plasma assay (Thio-PAF assay)
Type: biochemical
Conditions: pooled human plasma, 2-thio-PAF substrate; read-out: pIC50 in the thio-PAF assay (converted)
Where a name gives a salt, the structure may show the parent alone.
Property: IC50; scope: individual molecules

Field: example entries. Status: answers known.
CN1CCn2c1cc(OCc1ccc(Oc3ccnc(C(F)(F)F)c3)cc1)nc2=O | ≤ 1000 nM
N#Cc1cc(COc2cc3n(c(=O)n2)CCN3)ccc1Oc1ccc(C(F)(F)F)c(F)c1 | ≤ 100 nM
N#Cc1cc(COc2cc3n(c(=O)n2)CCN3)ccc1Oc1ccnc(C(F)(F)F)c1 | ≤ 100 nM

In one line, give reported IC50 of the entry CN1CCn2c1cc(OCc1cc(F)c(Oc3ccc(F)c(Cl)c3)c(F)c1)nc2=O .
≤ 100 nM

In one line, give reported IC50 of the entry CN1CCn2c1cc(OCc1ccc(Oc3cncc(F)c3)c(C#N)c1)nc2=O .
≤ 1000 nM

In one line, give reported IC50 of the entry CN1CCn2c1cc(OCc1cc(F)c(Oc3ccc(C(F)(F)F)c(F)c3)c(F)c1)nc2=O .
≤ 100 nM

In one line, give reported IC50 of the entry CN1CCn2c1cc(OCc1cc(F)c(Oc3cccc(C(F)(F)F)c3)c(F)c1)nc2=O .
≤ 100 nM

In one line, give reported IC50 of the entry CN1CCn2c1cc(OCc1cc(F)c(Oc3cccc(Cl)c3)c(F)c1)nc2=O .
≤ 1000 nM

In one line, give reported IC50 of the entry N#Cc1cc(COc2cc3n(c(=O)n2)CCN3)ccc1Oc1ccc(F)c(F)c1 [Example E72, trifluoroacetic acid salt] .
≤ 1000 nM

###

Target: Lp-PLA2 in human plasma (Homo sapiens, UniProt Q13093)
Construct: This assay may detect the activity of Lp-PLA2 in human plasma; from tissue; host or cells: pooled human plasma
Test: Lp-PLA2 human plasma assay (Thio-PAF assay)
Type: biochemical
Conditions: pooled human plasma, 2-thio-PAF substrate; read-out: pIC50 in the thio-PAF assay (converted)
Where a name gives a salt, the structure may show the parent alone.
Property: IC50; scope: individual compounds

N#Cc1cccc(COc2cc3n(c(=O)n2)CCN3)c1 [Example E60] | ≤ 1000 nM
CN1CCn2c1cc(OCc1ccc(Oc3ccc(F)c(C(F)(F)F)c3)c(F)c1)nc2=O [Example E45, trifluoroacetic acid salt] | ≤ 100 nM
CN1CCn2c1cc(OCc1ccc(Oc3cnc(F)c(F)c3)c(C#N)c1)nc2=O [Example E73] | ≤ 1000 nM
CN1CCn2c1cc(OCCc1ccc(Oc3ccc(Cl)c(C(F)(F)F)c3)cc1)nc2=O [Example E13] | ≤ 1000 nM
CN1CCn2c1cc(OCc1ccc(Oc3ccc(C#N)nc3)c(C#N)c1)nc2=O [Example 108] | ≤ 1000 nM
CN1CCn2c1cc(OCc1ccc(Oc3ccc(Cl)nc3)c(F)c1)nc2=O [Example 103, trifluoroacetic acid salt] | ≤ 100 nM
CN1CCn2c1cc(OCc1ccc(Oc3ccnc(C#N)c3)c(F)c1)nc2=O [Example 129, trifluoroacetic acid salt] | ≤ 1000 nM
O=c1nc(OCc2ccc(F)c(F)c2)cc2n1CCN2 [Example E68] | ≤ 1000 nM
O=c1nc(OCc2ccc(Oc3cc(F)c(F)c(F)c3)c(F)c2)cc2n1CCN2 [Example E77, trifluoroacetic acid salt] | ≤ 1000 nM
CN1CCn2c1cc(OCc1cccc(C#N)c1)nc2=O [Example E33] | ≤ 1000 nM

In one line, give reported IC50 of the entry CN1CCn2c1cc(OCc1ccc(Oc3ccc(Cl)c(Cl)c3)c(F)c1)nc2=O [Example E41] .
≤ 1000 nM

In one line, give reported IC50 of the entry CN1CCn2c1cc(OCc1cc(F)c(Oc3ccc(F)c(F)c3)c(F)c1)nc2=O [Example E75] .
≤ 1000 nM

In one line, give reported IC50 of the entry CN1CCn2c1cc(OCc1ccc(Oc3ccc(C#N)c(C(F)(F)F)c3)c(C#N)c1)nc2=O [Example E78] .
≤ 100 nM

In one line, give reported IC50 of the entry CN1CCn2c1cc(OCc1ccc(Oc3cncc(C#N)c3)c(C#N)c1)nc2=O [Example 138] .
≤ 1000 nM

In one line, give reported IC50 of the entry CN1CCn2c1cc(OCc1ccc(Oc3cccc(C#N)c3)c(C#N)c1)nc2=O [Example E62, trifluoroacetic acid salt] .
≤ 1000 nM

In one line, give reported IC50 of the entry CN1CCn2c1cc(OCc1ccc(F)c(F)c1)nc2=O [Example E7] .
≤ 1000 nM

In one line, give reported IC50 of the entry CN1CCn2c1cc(OCc1ccc(Oc3ccc(C(F)(F)F)nc3)c(F)c1)nc2=O [Example E3] .
≤ 1000 nM

In one line, give reported IC50 of the entry N#Cc1cc(COc2cc3n(c(=O)n2)CCN3)ccc1Oc1cncc(C(F)(F)F)c1 [Example 124, trifluoroacetic acid salt] .
≤ 100 nM

In one line, give reported IC50 of the entry O=c1nc(OCc2ccc(Oc3ccc(Cl)c(C(F)(F)F)c3)cc2)cc2n1CCN2 [Example 89] .
≤ 1000 nM
